Target: T1, Human soluble IL6-R (human, UniProt P08887 20-358)
T1 construct: Bought soluble receptor; biotinylated in some Alphascreen assays; also called sIL6-R; hIL-6R
T1 sequence (looked up): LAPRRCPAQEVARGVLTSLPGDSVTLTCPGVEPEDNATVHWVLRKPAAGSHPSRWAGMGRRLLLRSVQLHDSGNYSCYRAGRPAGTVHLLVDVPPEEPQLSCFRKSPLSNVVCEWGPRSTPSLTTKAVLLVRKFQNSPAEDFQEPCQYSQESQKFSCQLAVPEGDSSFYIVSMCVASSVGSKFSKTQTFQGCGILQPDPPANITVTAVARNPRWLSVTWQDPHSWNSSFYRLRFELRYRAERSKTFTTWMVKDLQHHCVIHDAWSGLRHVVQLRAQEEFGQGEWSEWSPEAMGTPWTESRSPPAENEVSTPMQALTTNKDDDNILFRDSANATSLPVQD
Assay: Alphascreen, 100 nM Nanobody; competitor Reference-Fab on beads
List of % binding retained in competition with Reference-Fab values.
Report only the number, with the unit % understood.

binder	reported result
IL6R05 (VHH, also called PMP32E10; PMP 32 E10) VHH: EVQLVESGGGLVQPGGSLRLSCAASGFTFGSYDMSWVRQAPGKGPEWVSAINSGGGSTYYADSVKGRFTISRDNAKNTLYLQMNSLKPEDTAVYYCATDWRYSDYDLPLPPPGDYWGQGTQVTVSS	64

Proceeding to the next binder to report its % binding retained in competition with Reference-Fab.
[Q] Which value of % binding retained in competition with Reference-Fab has been reported for IL6R08 (VHH, also called PMP34A12; PMP 34 A12) VHH: EVQLVESGGGLVQPGGSLRLSCVASGFSLDYYVIGWFRQAPGKEREGVSCISSSDGSTYYADSVKGRFTISRDNAKNTVYLQMNSLKPEDTAVYYCAADLLRTPEFCVDSAPYDYWGQGTQVTVSS in the records?
[A] 99
